Parameter: agonist effect on β-arrestin recruitment at GPR55. Scope: all listed entries.
experimental-target: human GPR55 (Homo sapiens, UniProt Q9Y2T6)
Sequence (Q9Y2T6 whole entry): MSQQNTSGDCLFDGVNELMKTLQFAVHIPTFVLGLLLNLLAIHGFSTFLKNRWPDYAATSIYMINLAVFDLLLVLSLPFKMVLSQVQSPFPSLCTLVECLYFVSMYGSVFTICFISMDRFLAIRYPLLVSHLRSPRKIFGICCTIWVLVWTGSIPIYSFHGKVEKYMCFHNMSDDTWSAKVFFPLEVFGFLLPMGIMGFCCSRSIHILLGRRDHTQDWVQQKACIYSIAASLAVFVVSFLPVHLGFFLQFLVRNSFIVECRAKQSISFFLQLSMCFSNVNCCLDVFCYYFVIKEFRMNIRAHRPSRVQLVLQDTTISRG
experimental-details: β-arrestin recruitment assay (PathHunter), CHO cells expressing GPR55
stated-conditions: test compound 10 µM, related to effect of LPI 1 µM = 100%
Value expressed in %; do not type the unit.

Below, each entry is followed by its recorded agonist effect on β-arrestin recruitment at GPR55 result.
CCCCCCCCc1ccc(O)c(-c2cc(CCC)ccc2O)c1 ... 0
CCCc1ccc(O)c(-c2cc(CC)ccc2O)c1 ... 0
CCCCc1ccc(O)c(-c2cc(CC)ccc2O)c1 ... 2
CCCCCCC(C)(C)c1ccc(C2CC(O)CCC2CCCO)c(O)c1 (single isomer, unassigned; (-)) [Compound 4, reference compound] ... 4

Find the measured agonist effect on β-arrestin recruitment at GPR55: item CCCCCCc1ccc(O)c(-c2cc(CCC)ccc2O)c1 , target or system human GPR55 (Homo sapiens, UniProt Q9Y2T6).
32

---

Measured inhibition at 10 µM, listed per entry for reference.
experimental-target: human CB1 receptor (Homo sapiens)
Sequence (P21554 whole entry): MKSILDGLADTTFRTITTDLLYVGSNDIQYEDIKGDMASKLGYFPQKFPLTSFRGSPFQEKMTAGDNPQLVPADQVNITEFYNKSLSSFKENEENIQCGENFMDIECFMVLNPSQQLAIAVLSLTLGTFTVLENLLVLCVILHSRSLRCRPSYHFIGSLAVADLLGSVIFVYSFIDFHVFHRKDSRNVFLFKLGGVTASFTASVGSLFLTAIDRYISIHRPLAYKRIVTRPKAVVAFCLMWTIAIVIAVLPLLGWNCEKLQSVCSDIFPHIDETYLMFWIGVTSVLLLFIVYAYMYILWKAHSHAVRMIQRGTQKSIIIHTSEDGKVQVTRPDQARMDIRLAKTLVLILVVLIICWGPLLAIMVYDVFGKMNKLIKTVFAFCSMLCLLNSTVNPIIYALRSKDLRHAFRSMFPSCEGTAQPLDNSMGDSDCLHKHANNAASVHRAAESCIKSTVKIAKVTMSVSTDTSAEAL
experimental-details: biochemical
Assay type: binding
stated-conditions: at 10 µM, vs. [3H]CP55,940; read-out: % inhibition of radioligand binding at CB1
Give the quantity in %, number only.

Known inhibition at 10 µM results, listed for orientation:
Oc1ccccc1-c1ccccc1O [Compound 40, 2-(2-hydroxyphenyl)phenol] ... 11
CCCc1ccc(O)c(-c2ccccc2O)c1 ... 45
Cc1ccc(O)c(-c2cc(C)ccc2O)c1 ... 23
CCCc1ccc(O)c(-c2cc(CC)ccc2O)c1 ... 43

Return inhibition at 10 µM measured with human CB1 receptor (Homo sapiens) given this compound: CCCCc1ccc(O)c(-c2ccccc2O)c1
40

Same question, CCCCc1ccc(O)c(-c2cc(C)ccc2O)c1 this time
44

How about CCCc1ccc(O)c(-c2cc(C)ccc2O)c1 ?
20

---

experimental-target: human GPR55 (Homo sapiens)
experimental-details: β-arrestin recruitment assay (PathHunter), CHO cells expressing GPR55
stated-conditions: GPR55 IC50, β-arrestin recruitment, antagonist mode vs. LPI (1 µM)
We begin with a simple list: items and their reported IC50.

CCCCc1ccc(O)c(-c2cc(CC)ccc2O)c1 [Compound 55] ... > 10 µM
CCCCCc1ccc(O)c(-c2cc(C)ccc2O)c1 [Compound 52] ... > 10 µM
CCCCCCc1ccc(O)c(-c2cc(CCCC)ccc2O)c1 [Compound 65] ... > 10 µM
CCCCCCc1ccc(O)c(-c2cc(CC)ccc2O)c1 [Compound 57] ... > 10 µM
CCCCCCCc1ccc(O)c(-c2cc(CCC)ccc2O)c1 [Compound 62] ... > 10 µM
CCCCCc1ccc(O)c(-c2ccccc2O)c1 [Compound 48] ... > 10 µM

Need IC50, item CCCCc1ccc(O)c(-c2cc(CCC)ccc2O)c1 [Compound 58]
~10 µM

Try the compound COc1ccc(C(=O)c2c(C)n(CCN3CCOCC3)c3cc(I)ccc23)cc1 [Compound 7, reference compound]
≥ 10 µM

Queued: CCCCCCc1ccc(OC)c(-c2cc(CCC)ccc2O)c1 [Compound 61b]
3.25 µM

Subsequent entry: COc1ccc(-c2oc3cc(OC)ccc3c2C(=O)c2ccc(C#N)cc2)cc1 [Compound 6, reference compound]
4.14 µM

Then what about the compound CCc1ccc(O)c(-c2cc(CC)ccc2O)c1 [Compound 42] ?
> 10 µM

Also check CCCc1ccc(O)c(-c2cc(CCC)ccc2O)c1 [Compound 12, tetrahydromagnolol]
13.2 µM

Now the compound CCCCc1ccc(O)c(-c2cc(CCCC)ccc2O)c1 [Compound 43]
> 10 µM

Also, CCCc1ccc(O)c(-c2ccccc2O)c1 [Compound 46] please.
> 10 µM

# iterate: CCCCc1ccc(O)c(-c2ccccc2O)c1 [Compound 47]
> 10 µM

Also CCCCCCc1ccc(O)c(-c2ccccc2O)c1 [Compound 49] ?
> 10 µM

Record: CCCCCCCCc1ccc(O)c(-c2cc(CCC)ccc2O)c1 [Compound 63]
> 10 µM

Lookup C=CCc1ccc(O)c(-c2ccc(OC)c(CC=C)c2)c1 [Compound 11, 4′-O-Methylhonokiol, reference compound]
7.77 µM
